test system: K4 kissing-loop RNA reporter; assay: apparent KD of K4 kissing-loop reporter; higher = weaker reporter binding; details: Eterna round: R107; input ligand: none
quantity_measured: apparent KD of K4 kissing-loop reporter (nM)
Answer with a number only, understood to be in nM.

UUUGGUUUCUCGGCCGCCACUCGUUGGUUAUGGGCUUCAGGGAUAUAGUGAUGUUAUGUAUAGAAGAGGACCGGGAGAAGGAAGG [ExTryptoB.Dq] : 288
CUUGGUGGCUACAUCAGGAAUUGCGGCGGAAAGGAUAUUCAUUGGCGAAGAAGGUUCCAAGUGACGAGUGAUGUUCUUCGUAAGG [theeternabot_sameState_KL_FMN_A_13] : 802
AAUAAGCGCGGAAGGAGCGCCGCCAGUGAUGUUGGGAGUUAGAUACCAGUGAUGUUGGGCCGGCAGGUAGGUCGCCGCAAAGCUU [Exclusion Arginine B Gf 14] : 165
GUGACACGUGAUGAUACCAGUCCACGGAAGUUCCUUAGUGAUGUUAACCUUGCUUUUUCUGACCCUUGGCAGCAUUAGUUGAGAA [theeternabot_sameState_KL_Theo_B_42] : 204
ACACGCAACUAUAGACCAGUGAUGUUGGAACGAGGACCGGUACGGCCGCCACUCGAGCGGACGAUCUACGCCUCUUAUGCUAACG [theeternabot_exclusion_KL_Trp_A_15] : 552
CUUCGAUUAACAGAUACCAGUCACUUUGGAGCCACACACAAGUGAGUGAUGUUCACUUGUGACCCUUGGCAGCUGUUAGUCGAAG [Theo B Ex t1] : 83.4
AGACUACCACACUGUCAAUAGACAGUGUACUAGGAUAUGCUGAUAAGCAGAAGGAGUGAUGUUCCUUGGUAGUCAAUAAAAUAAU [FmnAX 13 U28+U67] : 258
AAAUGCAGCAAACGAGUGAUGUUCGACGAUACCAGCCUCGAUAGAGGCCCUUGGCAGCGUACAUCAAAGCCAAGGGCUGCUAAAA [#SwitchBubble 3] : 552

Query :: Look up and report measured apparent KD of K4 kissing-loop reporter for this entry: UUGAGCCGGACGUAAGUCCGGCUCUGCGAGCGAGGACCGGUACGGCCGCCACUCGGUGCAGUGAUGUUGCAUGGCCGCAAGGCCG [#2 Exclusion - Tryptophan A Attempt #5 (HarryS)]
Result :: 235

Query :: Look up and report measured apparent KD of K4 kissing-loop reporter for this entry: ACCUACGAUCACAAAAGUGAUUGUAGGAUCUAGGAUAUGCUGAAGAGCAGAAGGAGAGUGAUGUUCUCAACUCACGAAAGUGAGA [whbob_Ex_FMNA__2th188]
Result :: 198

---

system: K4 kissing-loop RNA reporter; test: apparent KD of K4 kissing-loop reporter; higher = weaker reporter binding; details: Eterna round: R107; input ligand: FMN 200 uM;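 further: bound reporter read as fluorescence of individual clusters on recovered sequencing chips by microscopy, with normalized cluster intensities fitted with a binding model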
quantity_measured: apparent KD of K4 kissing-loop reporter
Answer shape: numeric part, then the unit.

AAGGUAUCACCAACUUGCAACAAAGGUGAUACCAGCAUCGAAAGAUGCCCUUGGCAGCACCAACUUGCAGUGAUGUUGCAAGUAA [(T)'-(H)'-(T1)-(T2)-(H1)-(H2)_Design10] : 170 nM
GCCGUACGCAUGGAUACCAGAUCUAGACGCUUAGUGAUGUUAAGUAAUCUGGUUAGACCGAUCCCUUGGCAGCCAUGCGUACGGC : 270 nM

Query :: Fetch value of apparent KD of K4 kissing-loop reporter on K4 kissing-loop RNA reporter for GGAUAGGACAGAGGAUAUGGACAGUCUACAAAGUAGGCUGAAUAAAUCCUUGAAUGGAGUGAUGUUCCAGAAGGCUGUCCUAUCG [FmnBX 22 #SwitchBubble #StaticStem #Palindromic] .
Result :: 337 nM

Query :: Fetch value of apparent KD of K4 kissing-loop reporter on K4 kissing-loop RNA reporter for GUUGCAGCCCGUGAUACCAGCAUCGGUCGCCGGGUCCAGUGAUGUUGGGCUUGCGUUCUAUGCCCUUGGCAGCGCGGCCUGACAG [Qulaanar] .
Result :: 415 nM

Query :: Fetch value of apparent KD of K4 kissing-loop reporter on K4 kissing-loop RNA reporter for UACGCUGCCUGAGGAUAUAGAAACGAGUGAUGUUCGUGGAUAAGAGCCAGUGAUGUUGGGUUAUUUCUAGAAGGCAGGUAAAGUA [Exclusion FMN B GF6] .
Result :: 106 nM

Query :: Fetch value of apparent KD of K4 kissing-loop reporter on K4 kissing-loop RNA reporter for AAUAUAGUGAUGUUAUAUAAGAAGGAGUUACGAGGACCGGUACGGCCGCCACUCGAAACGAGUGAGGAUUUGGGAGAUUGGGUUU [SSTryptA.M] .
Result :: 493 nM

---

system: MS2 coat protein; experiment: apparent KD of MS2 coat protein; designed switch direction (-1 OFF switch, 1 ON switch): -1; higher = weaker reporter binding; conditions: input ligand: none
quantity_measured: apparent KD of MS2 coat protein (nM)
Answer with a number only, understood to be in nM.

ACUUAUUGAGGAUAUACAGAUUAUUACAUGAGGAUCACCCAUGUUCUUCAAUGUAUAUAUGUAGAAGGCAGAAGUA [Mat - Exclusion 5 - JL Mod - D14] (Eterna round: R97, puzzle: Exclusion 5) : 88.9
ACAUGAGGAUCACCCAUGUUUGGCUGGUUUUCUCCGGCUGUCGAGGAUAUAGUCCGGUAUCCGCGCUAGAAGGUGAGGGUUGGC [Aenatbe mod 4] (Eterna round: R96, puzzle: Exclusion NG 3) : 22.8
UGCAGACGAGGAUAUGAUUAAUAAUACAUGAGGAUCACCCAUGUAAUACUGAUCUAUGGAUCAGAAGGUGUCUGCU [E5/6-B3] (Eterna round: R97, puzzle: Exclusion 5) : 24.1
AAUUUAUGAGGAUAUACAGUGUAAAACAUGAGGAUCACCCAUGUUCUUCAAUUAGUAUUUGUAGAAGGCAUAUGUA [JR_Ex5_Sub095] (Eterna round: R97, puzzle: Exclusion 5) : 17.1
UUUAGUUCAGGAUAUGUAGAAAUUAACAUGAGGAUCACCCAUGUCGAUCCUGAAUUAACUACAGAAGGGAACAUUU [Mod of Brourd 6 - Jieux - Exclusion 5] (Eterna round: R97, puzzle: Exclusion 5) : 14.2
UUAAAUCAUGUAGGAUAUGCGUGGCGAAGCUAUGCAGAAGGACAUGAGGAUCACCCAUGUGCUUGCGUCCGCGUACGGAUGCUA [JL ENG1 1.22] (Eterna round: R96, puzzle: Exclusion NG 1) : 104
GAGGACUUAGGAUAUACAUGAGGAUCACCCAUGUCCCUAAGCAUGCGACAGCCCUCGAGUAGAAGGGAGGACCA [Eternabot (Original) Solution 3] (Eterna round: R97, puzzle: Exclusion 3) : 14.7
AUCAGCUCGUGAGGAUAUACAUCACUGCUUCGGCAGUGUAUUAAGAUCACAUGAGGAUCACCCAUGUAGAAGGUACGAGCUGAU [ENG2/2-C3] (Eterna round: R96, puzzle: Exclusion NG 2) : 26.1
AUCGAGAUAGGAUAUGCCCAAGUAAACAUGAGGAUCACCCAUGUGGGUCACCUCUUCACGGUAGAAGGGUUAGAUU [Eternabot (L1) Solution 90] (Eterna round: R97, puzzle: Exclusion 5) : 81.8
UACGAAGAGUGAGGAUAUGUGCGACAAAGUUGCACAGAAGGCACAUGAGGAUCACCCAUGUGAGCUAGGUCGAAAGACCUAGCG [Omei Exc(NG)1 Av6] (Eterna round: R96, puzzle: Exclusion NG 1) : 19.7

Query :: Fetch value of apparent KD of MS2 coat protein on MS2 coat protein for UCAUGGGAGCGAGGAUAUAGCCCAUGUGAAGAACUAGAAGGCGCAGACAUGAGGAUCACCCAUGUGUUCAUGAGGAGGUGGACA (Eterna round: R96, puzzle: Exclusion NG 1) .
Result :: 83.4

Query :: Fetch value of apparent KD of MS2 coat protein on MS2 coat protein for GAUCUAGGUGUCAGGAUAUGUAGCUAGGUAAGCAGACAGAAGGGACAUGAGGAUCACCCAUGUCGCAAAUUAAU [Gezadi] (Eterna round: R97, puzzle: Brourd's mod of Exclusion 4) .
Result :: 18.5

Query :: Fetch value of apparent KD of MS2 coat protein on MS2 coat protein for UUUUGCAAGCAAAUUGUCAACAUGAGGAUCACCCAUGUGGAAGCCUUGGAGGGUGGGACCGUAAGUAGAGCUCGUUU [Eternabot (L2) Solution 34] (Eterna round: R97, puzzle: Sensor, turn-off variant 1) .
Result :: 39.2

Query :: Fetch value of apparent KD of MS2 coat protein on MS2 coat protein for UAUUUGCAAGCGAGAUCCCACAUGAGGAUCACCCAUGUGCUCGUCUUAUAAGGUACUGUGACGAGAGUCACGGUACC [Mat - Sensor, turn-off var - Eli Mod - D90] (Eterna round: R97, puzzle: Sensor, turn-off variant 1) .
Result :: 15.6

Query :: Fetch value of apparent KD of MS2 coat protein on MS2 coat protein for AAGUCGACGGUGAGGAUAUAGGUUGAACGACAGAUCUAGAAGGUACAUGAGGAUCACCCAUGUGGGUAACGUCG [Brourd's EX4 #36] (Eterna round: R97, puzzle: Brourd's mod of Exclusion 4) .
Result :: 98.2
